Target: T1, human plasma Kallikrein (human, UniProt P03952 20-638, limits assumed)
T1 construct: also called hPK; human PK
T1 sequence (P03952 20-638 limits assumed): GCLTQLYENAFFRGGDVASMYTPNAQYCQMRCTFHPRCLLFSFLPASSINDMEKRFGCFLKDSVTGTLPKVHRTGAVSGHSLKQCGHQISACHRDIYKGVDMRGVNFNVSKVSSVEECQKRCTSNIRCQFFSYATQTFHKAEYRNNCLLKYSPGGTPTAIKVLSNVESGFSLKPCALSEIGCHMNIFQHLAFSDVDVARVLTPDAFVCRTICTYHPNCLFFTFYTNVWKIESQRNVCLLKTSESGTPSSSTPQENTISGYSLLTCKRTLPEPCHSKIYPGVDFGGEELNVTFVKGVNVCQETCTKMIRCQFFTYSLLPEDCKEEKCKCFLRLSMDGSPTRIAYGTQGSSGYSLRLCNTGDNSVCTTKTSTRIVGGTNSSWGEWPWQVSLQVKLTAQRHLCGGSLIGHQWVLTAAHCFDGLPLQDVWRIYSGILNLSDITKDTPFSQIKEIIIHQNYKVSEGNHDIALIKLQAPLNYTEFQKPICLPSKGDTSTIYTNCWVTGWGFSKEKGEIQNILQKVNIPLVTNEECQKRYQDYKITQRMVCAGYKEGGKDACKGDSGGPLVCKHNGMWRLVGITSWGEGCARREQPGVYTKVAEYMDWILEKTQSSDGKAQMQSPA
Assay: enzyme inhibition assay
Numbered stars: 1 amine (or outer) side, 2 acyl side, 3 side chain; on linkers, the order of the positions; unused ones are H or OH. Bridge positions count the residues as written; N and C are the ends. TBMB = c1c(C[*:1])cc(C[*:3])cc1C[*:2]
metric.name: pKi
On this scale, pKi is minus log10 of a concentration expressed in M (mol/L).

For this binder ( Ac-CSWPARCLHQDLC-NH2 (linker 1-7-13 via TBMB; SMILES CC(=O)N[C@H]1CSCc2cc3cc(c2)CSC[C@H](NC(=O)[C@H](CCCNC(=N)N)NC(=O)[C@H](C)NC(=O)[C@@H]2CCCN2C(=O)[C@H](Cc2c[nH]c4ccccc24)NC(=O)[C@H](CO)NC1=O)C(=O)N[C@@H](CC(C)C)C(=O)N[C@@H](Cc1c[nH]cn1)C(=O)N[C@@H](CCC(N)=O)C(=O)N[C@@H](CC(=O)O)C(=O)N[C@@H](CC(C)C)C(=O)N[C@H](C(N)=O)CSC3, also called Ac-(06-34-18) wildtype; Ac-(06-34-18) WPAR) [Ac-06-34-18(TMB)-NH2] ), measured pKi is 9.77
